Listing: hAC1 % Inhib of selected molecules
system: hAC1 (Homo sapiens, UniProt Q08828)
Construct: expressed in transfected cells
Sequence (Q08828 whole entry): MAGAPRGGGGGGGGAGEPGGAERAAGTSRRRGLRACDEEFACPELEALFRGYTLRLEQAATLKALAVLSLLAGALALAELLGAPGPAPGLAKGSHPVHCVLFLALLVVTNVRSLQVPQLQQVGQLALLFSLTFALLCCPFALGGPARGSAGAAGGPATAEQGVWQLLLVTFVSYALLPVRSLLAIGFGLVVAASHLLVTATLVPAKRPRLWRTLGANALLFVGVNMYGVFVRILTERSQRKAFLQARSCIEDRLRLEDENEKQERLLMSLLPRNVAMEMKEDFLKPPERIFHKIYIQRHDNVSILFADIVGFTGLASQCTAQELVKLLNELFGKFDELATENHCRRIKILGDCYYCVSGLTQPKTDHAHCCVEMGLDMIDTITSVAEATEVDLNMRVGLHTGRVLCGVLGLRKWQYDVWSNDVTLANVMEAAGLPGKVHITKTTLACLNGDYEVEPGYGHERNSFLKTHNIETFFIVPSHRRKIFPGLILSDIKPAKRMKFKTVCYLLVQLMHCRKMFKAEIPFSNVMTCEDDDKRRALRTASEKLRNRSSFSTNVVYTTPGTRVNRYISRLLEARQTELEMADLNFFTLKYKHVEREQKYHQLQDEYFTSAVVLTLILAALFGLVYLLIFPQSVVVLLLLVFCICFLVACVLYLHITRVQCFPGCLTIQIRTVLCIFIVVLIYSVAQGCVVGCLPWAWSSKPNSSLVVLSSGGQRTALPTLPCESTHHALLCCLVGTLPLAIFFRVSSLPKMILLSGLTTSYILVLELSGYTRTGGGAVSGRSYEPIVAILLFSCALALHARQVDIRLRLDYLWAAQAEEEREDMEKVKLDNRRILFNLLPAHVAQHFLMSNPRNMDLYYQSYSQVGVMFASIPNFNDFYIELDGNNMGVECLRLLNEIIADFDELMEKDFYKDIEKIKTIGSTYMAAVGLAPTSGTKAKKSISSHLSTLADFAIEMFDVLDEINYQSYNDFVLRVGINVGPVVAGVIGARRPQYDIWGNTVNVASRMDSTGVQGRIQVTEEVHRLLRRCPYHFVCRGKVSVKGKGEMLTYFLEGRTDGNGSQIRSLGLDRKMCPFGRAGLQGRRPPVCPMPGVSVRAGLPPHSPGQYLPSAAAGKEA
experimentNotes: Cyclic AMP accumulation (HTRF) in HEK cells stably expressing AC1, stimulated with A23187
Type: cell-based
runConditions: Table 1; stable HEK cells, A23187-stimulated cAMP; n ≥ 3
Procedure: The screen was carried out using HEK cells stably expressing AC1 (HEK-AC1) and cyclic AMP accumulation was stimulated using the Ca^2+ ionophore, A23187 to selectively activate AC1. […] The primary technology we employed to measure cAMP accumulation was a homogenous time-resolved fluorescence (HTRF) assay, the same technology utilized in the primary screen. […]

molecule | system | hAC1 % Inhib / %
O=C(Nc1nnc(-c2ccc3c(c2)OCCO3)o1)c1ccc(Br)cc1 | hAC1 (Homo sapiens, UniProt Q08828) | 101
CCc1cc(=O)[nH]c(-n2nc(C)cc2NC(=O)c2ccccc2F)n1 | hAC1 (Homo sapiens, UniProt Q08828) | 99
CSc1ccccc1C(=O)Nc1cc(C)nn1-c1nc2c(c(=O)[nH]1)CCC2 | hAC1 (Homo sapiens, UniProt Q08828) | 99
O=C(Nc1nnc(-c2ccc3c(c2)CCCC3)o1)c1ccccc1 | hAC1 (Homo sapiens, UniProt Q08828) | 101
CCc1c(C)nc(-n2nc(C)cc2NC(=O)c2ccco2)[nH]c1=O | hAC1 (Homo sapiens, UniProt Q08828) | 100
CC1CC(C)CN(S(=O)(=O)c2ccc(C(=O)Nc3nnc(-c4cccs4)o3)cc2)C1 (stereo not shown) | hAC1 (Homo sapiens, UniProt Q08828) | 99
CSc1cccc(C(=O)Nc2nnc(C3CCCCC3)o2)c1 | hAC1 (Homo sapiens, UniProt Q08828) | 99

---

system: hAC8 (Homo sapiens, UniProt P40145)
Construct: expressed in transfected cells
Sequence (P40145 whole entry): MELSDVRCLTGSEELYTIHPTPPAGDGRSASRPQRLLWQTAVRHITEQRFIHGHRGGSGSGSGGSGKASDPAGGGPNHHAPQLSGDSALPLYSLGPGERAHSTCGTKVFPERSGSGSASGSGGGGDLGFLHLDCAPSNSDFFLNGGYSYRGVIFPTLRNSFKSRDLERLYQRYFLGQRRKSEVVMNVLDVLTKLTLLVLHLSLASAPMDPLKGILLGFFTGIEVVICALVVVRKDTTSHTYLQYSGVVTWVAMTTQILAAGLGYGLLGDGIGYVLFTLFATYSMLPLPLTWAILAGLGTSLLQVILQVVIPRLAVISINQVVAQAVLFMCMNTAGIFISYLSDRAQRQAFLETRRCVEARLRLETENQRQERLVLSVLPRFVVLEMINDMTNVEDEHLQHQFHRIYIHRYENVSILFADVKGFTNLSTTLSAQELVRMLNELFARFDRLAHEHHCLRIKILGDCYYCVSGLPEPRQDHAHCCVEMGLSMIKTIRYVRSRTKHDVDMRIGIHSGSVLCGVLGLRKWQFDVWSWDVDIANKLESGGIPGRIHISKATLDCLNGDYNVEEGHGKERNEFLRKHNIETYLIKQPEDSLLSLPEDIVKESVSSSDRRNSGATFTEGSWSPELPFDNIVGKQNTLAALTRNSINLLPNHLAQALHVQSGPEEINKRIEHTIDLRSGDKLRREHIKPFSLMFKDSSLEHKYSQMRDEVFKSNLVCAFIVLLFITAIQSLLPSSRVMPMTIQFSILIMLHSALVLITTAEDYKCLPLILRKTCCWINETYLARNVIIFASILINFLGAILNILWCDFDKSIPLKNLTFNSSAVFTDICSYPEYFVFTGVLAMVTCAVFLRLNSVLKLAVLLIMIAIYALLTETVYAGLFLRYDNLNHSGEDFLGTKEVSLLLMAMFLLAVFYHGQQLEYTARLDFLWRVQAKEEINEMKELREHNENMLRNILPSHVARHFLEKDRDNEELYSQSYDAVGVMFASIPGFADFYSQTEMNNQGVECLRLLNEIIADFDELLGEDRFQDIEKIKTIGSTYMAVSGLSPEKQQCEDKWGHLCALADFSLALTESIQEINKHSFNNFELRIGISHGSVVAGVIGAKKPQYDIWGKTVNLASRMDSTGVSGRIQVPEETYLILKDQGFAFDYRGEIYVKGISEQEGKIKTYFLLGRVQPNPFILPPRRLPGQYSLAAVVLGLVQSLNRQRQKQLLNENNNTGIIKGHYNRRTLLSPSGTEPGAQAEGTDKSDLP
experimentNotes: Cyclic AMP accumulation (HTRF) in HEK cells stably expressing AC8, stimulated with A23187
Assay type: cell-based
runConditions: HEK293; Table 2; 30 μM
metricName: inhibition at 30 µM

compound | metricName | result
Cc1cc(NC(=O)c2cccc(F)c2)n(-c2nc(=O)cc(C)[nH]2)n1 [AC10057] | inhibition at 30 µM | 9%
Cc1cc(NC(=O)c2ccccc2F)n(-c2nc(=O)cc(C)[nH]2)n1 [AC10042] | inhibition at 30 µM | 9%
CCc1cc(=O)nc(-n2nc(C)cc2NC(=O)c2ccccc2F)[nH]1 [AC10048] | inhibition at 30 µM | 19%
Cc1cc(NC(=O)c2ccco2)n(-c2nc(=O)cc(C)[nH]2)n1 [AC10043] | inhibition at 30 µM | 16%
CCc1cc(=O)nc(-n2nc(C)cc2NC(=O)c2ccc(Cl)cc2)[nH]1 [AC10058] | inhibition at 30 µM | 19%
CCc1cc(=O)nc(-n2nc(C)cc2NC(=O)c2cccc(F)c2)[nH]1 [AC10049] | inhibition at 30 µM | 26%

---

system: hAC8 (Homo sapiens, UniProt P40145)
Construct: expressed in transfected cells
experimentNotes: Cyclic AMP accumulation (HTRF) in HEK cells stably expressing AC8, stimulated with A23187
Type: cell-based
runConditions: Table 1; at 30 μM; negative values indicate a potentiated response
metricName: hAC8 % Inhib (%)

compound | unitTag | quantitativeResult
CSc1ccccc1C(=O)Nc1cc(C)nn1-c1nc2c(c(=O)[nH]1)CCC2 | % | 35
CCc1cc(=O)[nH]c(-n2nc(C)cc2NC(=O)c2ccccc2F)n1 | % | 20
O=C(Nc1nnc(-c2ccc3c(c2)OCCO3)o1)c1ccc(Br)cc1 | % | 79
CSc1cccc(C(=O)Nc2nnc(C3CCCCC3)o2)c1 | % | 31
CC1CC(C)CN(S(=O)(=O)c2ccc(C(=O)Nc3nnc(-c4cccs4)o3)cc2)C1 (stereo not shown) | % | 74
O=C(Nc1nnc(-c2ccc3c(c2)CCCC3)o1)c1ccccc1 | % | 76
CCc1c(C)nc(-n2nc(C)cc2NC(=O)c2ccco2)[nH]c1=O | % | 34
